# TARGET UNDER TEST: Her3 (Homo sapiens, UniProt P21860)
# Sequence (P21860 20-1342): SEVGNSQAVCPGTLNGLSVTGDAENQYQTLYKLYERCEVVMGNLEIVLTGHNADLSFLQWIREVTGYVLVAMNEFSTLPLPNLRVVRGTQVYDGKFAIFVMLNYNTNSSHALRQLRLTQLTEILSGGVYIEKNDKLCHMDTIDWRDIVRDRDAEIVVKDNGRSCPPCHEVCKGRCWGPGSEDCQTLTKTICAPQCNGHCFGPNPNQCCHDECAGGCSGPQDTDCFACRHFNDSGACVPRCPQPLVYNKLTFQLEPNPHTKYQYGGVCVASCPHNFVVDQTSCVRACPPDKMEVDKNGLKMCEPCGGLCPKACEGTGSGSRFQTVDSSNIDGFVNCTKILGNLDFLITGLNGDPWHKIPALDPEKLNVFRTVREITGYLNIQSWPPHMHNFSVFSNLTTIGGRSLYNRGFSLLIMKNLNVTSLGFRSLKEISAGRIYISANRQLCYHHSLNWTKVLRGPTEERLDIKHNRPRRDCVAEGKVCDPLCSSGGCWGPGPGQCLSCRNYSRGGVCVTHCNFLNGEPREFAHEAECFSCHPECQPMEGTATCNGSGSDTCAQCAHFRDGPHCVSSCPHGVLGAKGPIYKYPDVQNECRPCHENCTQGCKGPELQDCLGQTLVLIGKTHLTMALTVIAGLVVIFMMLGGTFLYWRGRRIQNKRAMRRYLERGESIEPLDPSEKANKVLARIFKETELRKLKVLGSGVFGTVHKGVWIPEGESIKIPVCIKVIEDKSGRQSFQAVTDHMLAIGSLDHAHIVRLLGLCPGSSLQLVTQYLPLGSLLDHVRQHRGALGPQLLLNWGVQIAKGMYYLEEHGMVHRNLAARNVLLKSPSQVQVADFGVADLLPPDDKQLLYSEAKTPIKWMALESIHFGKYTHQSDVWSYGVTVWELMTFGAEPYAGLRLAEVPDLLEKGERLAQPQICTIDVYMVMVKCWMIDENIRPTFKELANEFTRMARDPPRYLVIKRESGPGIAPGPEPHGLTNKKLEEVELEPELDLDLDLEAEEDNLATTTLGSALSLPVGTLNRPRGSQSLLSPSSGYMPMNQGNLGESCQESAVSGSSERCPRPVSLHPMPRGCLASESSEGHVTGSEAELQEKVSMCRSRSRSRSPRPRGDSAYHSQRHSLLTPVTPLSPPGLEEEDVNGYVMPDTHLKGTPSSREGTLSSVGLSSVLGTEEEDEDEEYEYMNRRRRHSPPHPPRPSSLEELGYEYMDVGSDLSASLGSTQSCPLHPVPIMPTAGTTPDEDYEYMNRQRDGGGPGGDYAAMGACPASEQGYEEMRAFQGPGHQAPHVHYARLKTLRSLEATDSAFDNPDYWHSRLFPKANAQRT
# PROTOCOL TEXT: Her3 protein degradation by Western blot (immunoblotting)
# Type: cell-based
# Set-up: endogenous in cells; host or cells: PC9-GR4; Ovacar 8; key: +: Her3 protein was degraded; −: Her3 protein was not degraded
# PROTOCOL CONDITIONS: PC9-GR4 or Ovacar 8 cell lines, 2 μM, 4 hours and 8 hours
PROPERTY LABEL: Her3 degradation

# MOLECULE, TARGET UNDER TEST, PROPERTY LABEL, ENDPOINT RESULT
records = [
    ("COc1cc(Nc2c(C#N)cnc3cc(OCCCOCCOCCOCCOCCNc4cccc5c4C(=O)N(C4CCC(=O)NC4=O)C5=O)c(OC)cc23)c(Cl)cc1Cl (stereo not drawn) [Compound CY9]", "Her3 (Homo sapiens, UniProt P21860)", "Her3 degradation", "+"),
    ("COc1cc2ncnc(Nc3cccc(Cl)c3F)c2cc1OC1CCN(CC(=O)NCCOCCOCCOCCNc2cccc3c2C(=O)N(C2CCC(=O)NC2=O)C3=O)CC1 (stereo not drawn) [Compound CY11]", "Her3 (Homo sapiens, UniProt P21860)", "Her3 degradation", "−"),
    ("COc1cc2ncnc(Nc3cccc(Cl)c3F)c2cc1OC1CCN(CC(=O)NCCOCCOCCNc2cccc3c2C(=O)N(C2CCC(=O)NC2=O)C3=O)CC1 (stereo not drawn) [Compound CY10]", "Her3 (Homo sapiens, UniProt P21860)", "Her3 degradation", "−"),
]

* * *

IC50 data for Her3 (Homo sapiens) follow.

// solved cases for IC50 follow
# COMPOUND, ENDPOINT RESULT
records = [
    ("COc1cc(Nc2c(C#N)cnc3cc(OCCCN4CCN(CCOCCOCCOCCNc5cccc6c5C(=O)N(C5CCC(=O)NC5=O)C6=O)CC4)c(OC)cc23)c(Cl)cc1Cl (stereo not shown)", "< 10 nM"),
    ("COc1cc(Nc2c(C#N)cnc3cc(OCCCN4CCN(C(=O)CCCNC(=O)COc5cccc6c5C(=O)N(C5CCC(=O)NC5=O)C6=O)CC4)c(OC)cc23)c(Cl)cc1Cl (stereo not shown)", "< 10 nM"),
    ("COc1cc(Nc2c(C#N)cnc3cc(OCCCN4CCN(CC(=O)NCCOCCOCCOCCNC(=O)COc5cccc6c5C(=O)N(C5CCC(=O)NC5=O)C6=O)CC4)c(OC)cc23)c(Cl)cc1Cl (stereo not shown)", "< 10 nM"),
]

Turning now to a further compound:
*Q* # IC50 lookup, item COc1cc(Nc2c(C#N)cnc3cc(OCCCN4CCN(CCOCCOCCNc5cccc6c5C(=O)N(C5CCC(=O)NC5=O)C6=O)CC4)c(OC)cc23)c(Cl)cc1Cl (stereo not shown)
*A* < 10 nM
